Entry source: paper PMC10082216

procedure text: TD-6450 phase I clinical study (SAD/MAD): pharmacokinetics
Type: in vivo, human
condition info: female, human, plasma, oral, 15 mg, Female subjects, SAD arm NCT02022306, Dose 15.00, 24 Hours; read-out: Concentration
Procedure: Primary and secondary outcomes were pre-defined as follows: Safety and tolerability as a primary outcome, pharmacokinetics as a secondary outcome. Safety and tolerability were evaluated using standard measures, including adverse event (AE) monitoring, clinical laboratory tests (hematology, serum chemistry, coagulation, and urinalysis), vital signs, physical examinations, and 12-lead electrocardiograms (ECGs). […] This study was conducted in two parts, Part A (SAD) and Part B (MAD). […]

smiles representation	unit string	concentration at 24 h
CNC(=O)N1C[C@@H](C)N(c2ccc(C(=O)Nc3ccc(-c4ccc(-c5c[nH]c([C@@H]6CCCN6C(=O)[C@@H](NC(=O)OC)C(C)C)n5)cc4)c(OC(F)(F)F)c3)cn2)C[C@@H]1C	ng/mL	9.09

====

procedure text: TD-6450 phase I clinical study (SAD/MAD): pharmacokinetics
Format: in vivo, human
condition info: both sexes, human, plasma, oral, 120 mg, SAD 120 mg; read-out: Cmax Mean ± SD

smiles representation	unit string	Cmax
CNC(=O)N1C[C@@H](C)N(c2ccc(C(=O)Nc3ccc(-c4ccc(-c5c[nH]c([C@@H]6CCCN6C(=O)[C@@H](NC(=O)OC)C(C)C)n5)cc4)c(OC(F)(F)F)c3)cn2)C[C@@H]1C	nM	174

====

procedure text: TD-6450 phase I clinical study (SAD/MAD): pharmacokinetics
Type: in vivo, human
condition info: female, human, plasma, oral, 0.5 mg, Female subjects, SAD arm NCT02022306, Dose 0.50, 6 Hours; read-out: Concentration
readout name: concentration at 6 h (ng/mL)

smiles representation	observed
CNC(=O)N1C[C@@H](C)N(c2ccc(C(=O)Nc3ccc(-c4ccc(-c5c[nH]c([C@@H]6CCCN6C(=O)[C@@H](NC(=O)OC)C(C)C)n5)cc4)c(OC(F)(F)F)c3)cn2)C[C@@H]1C	0.67

====

procedure text: TD-6450 phase I clinical study (SAD/MAD): pharmacokinetics
Type: in vivo, human
condition info: male, human, plasma, oral, 30 mg, Male subjects, SAD arm NCT02022306, Dose 30.00, 8 Hours; read-out: Concentration

compound	unit string	concentration at 8 h
CNC(=O)N1C[C@@H](C)N(c2ccc(C(=O)Nc3ccc(-c4ccc(-c5c[nH]c([C@@H]6CCCN6C(=O)[C@@H](NC(=O)OC)C(C)C)n5)cc4)c(OC(F)(F)F)c3)cn2)C[C@@H]1C [TD-6450]	ng/mL	26.3

====

procedure text: TD-6450 phase I clinical study (SAD/MAD): pharmacokinetics
Format: in vivo, human
condition info: both sexes, human, plasma, oral, 240 mg, MAD 240 mg, day 1; read-out: Cmax Mean ± SD, D1
readout name: Cmax (nM)

smiles representation	observed
CNC(=O)N1C[C@@H](C)N(c2ccc(C(=O)Nc3ccc(-c4ccc(-c5c[nH]c([C@@H]6CCCN6C(=O)[C@@H](NC(=O)OC)C(C)C)n5)cc4)c(OC(F)(F)F)c3)cn2)C[C@@H]1C	459

====

procedure text: TD-6450 phase I clinical study (SAD/MAD): pharmacokinetics
Format: in vivo, human
condition info: male, human, plasma, oral, 30 mg, Male subjects, SAD arm NCT02022306, Dose 30.00, 120 Hours; read-out: Concentration (ng/ml)
readout name: concentration at 120 h (ng/mL)

compound	readout name	unit string	observed
CNC(=O)N1C[C@@H](C)N(c2ccc(C(=O)Nc3ccc(-c4ccc(-c5c[nH]c([C@@H]6CCCN6C(=O)[C@@H](NC(=O)OC)C(C)C)n5)cc4)c(OC(F)(F)F)c3)cn2)C[C@@H]1C [TD-6450]	concentration at 120 h	ng/mL	3.52
